This collection of values is drawn from paper PMC7763008.

System: Colo 205 human colonic adenocarcinoma cell line (doxorubicin-sensitive)
Assay: MTT antiproliferative activity assay, Colo 205
Format: cell-based
Settings: 5 × 10^3 cells/well
We begin with a simple list: items and their reported IC50.

1) COc1ccc2cc(-c3sc4ccccc4c(=O)c3CC(S(=O)(=O)C(F)(F)F)S(=O)(=O)C(F)(F)F)ccc2c1 | > 100 µM
2) COc1ccc(-c2[se]c3ccccc3c(=O)c2CC(S(=O)(=O)C(F)(F)F)S(=O)(=O)C(F)(F)F)cc1 | > 100 µM

Lab note: next compound to report on.
Task: Entry COc1ccc2cc(-c3[se]c4ccccc4c(=O)c3CC(S(=O)(=O)C(F)(F)F)S(=O)(=O)C(F)(F)F)ccc2c1 : reported IC50 = ?
Result: > 100 µM

###

Experiment: MTT cytotoxic activity assay, MRC-5
Type: cell-based
Details: human, MRC-5 embryonal lung fibroblast cells; MTT, MRC-5 normal lung fibroblasts; read-out: Cytotoxic activity, C—MRC-5 IC50
Test Readout: IC50

Task: Entry COc1cccc2c1C(=O)c1c(O)c3c(c(O)c1C2=O)C[C@@](O)(C(=O)CO)C[C@@H]3O[C@H]1C[C@H](N)[C@H](O)[C@H](C)O1 [DOXO, Doxorubicin, reference compound] : reported IC50 = ?
Result: > 10 µM

###

Target: P-gp (ABCB1) efflux pump in MDR Colo 320 colon adenocarcinoma cells (Homo sapiens, UniProt P08183)
Sequence (P08183 whole entry): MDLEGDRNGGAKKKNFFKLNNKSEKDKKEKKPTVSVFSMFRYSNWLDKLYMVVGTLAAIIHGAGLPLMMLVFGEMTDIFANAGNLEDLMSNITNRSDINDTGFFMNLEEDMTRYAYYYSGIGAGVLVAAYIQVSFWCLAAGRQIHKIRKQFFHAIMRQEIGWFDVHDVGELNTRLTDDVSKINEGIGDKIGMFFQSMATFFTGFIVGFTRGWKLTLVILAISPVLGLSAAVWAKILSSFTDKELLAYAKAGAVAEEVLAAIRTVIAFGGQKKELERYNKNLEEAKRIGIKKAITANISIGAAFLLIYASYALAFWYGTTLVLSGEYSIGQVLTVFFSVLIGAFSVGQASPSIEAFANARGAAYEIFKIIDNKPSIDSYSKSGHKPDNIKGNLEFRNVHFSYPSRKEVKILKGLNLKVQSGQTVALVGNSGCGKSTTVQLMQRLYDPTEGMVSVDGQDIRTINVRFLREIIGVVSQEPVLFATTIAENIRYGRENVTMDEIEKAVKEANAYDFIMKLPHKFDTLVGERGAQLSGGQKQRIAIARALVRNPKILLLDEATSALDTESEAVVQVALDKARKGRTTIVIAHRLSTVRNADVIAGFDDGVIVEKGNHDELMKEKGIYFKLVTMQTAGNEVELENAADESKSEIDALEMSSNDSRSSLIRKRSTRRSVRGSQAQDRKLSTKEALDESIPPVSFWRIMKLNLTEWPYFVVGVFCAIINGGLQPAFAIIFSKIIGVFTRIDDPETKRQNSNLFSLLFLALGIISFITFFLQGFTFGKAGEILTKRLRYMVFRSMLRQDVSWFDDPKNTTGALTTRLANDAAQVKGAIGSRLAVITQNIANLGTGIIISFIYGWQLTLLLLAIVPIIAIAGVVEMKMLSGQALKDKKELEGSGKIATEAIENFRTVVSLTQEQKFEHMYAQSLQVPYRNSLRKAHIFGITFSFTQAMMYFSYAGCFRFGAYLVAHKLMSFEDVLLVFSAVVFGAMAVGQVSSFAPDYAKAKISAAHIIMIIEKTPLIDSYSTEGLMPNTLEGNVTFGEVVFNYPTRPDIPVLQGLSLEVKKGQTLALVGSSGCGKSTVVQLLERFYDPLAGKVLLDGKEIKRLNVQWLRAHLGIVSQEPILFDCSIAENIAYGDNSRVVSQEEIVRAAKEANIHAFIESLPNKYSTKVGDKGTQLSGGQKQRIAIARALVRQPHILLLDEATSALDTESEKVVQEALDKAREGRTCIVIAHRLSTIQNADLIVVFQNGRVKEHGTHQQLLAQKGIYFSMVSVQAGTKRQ
Experiment: Rhodamine 123 accumulation assay (MDR efflux pump inhibition, flow cytometry)
Conditions: 20 μM, MDR Colo 320 vs sensitive Colo 205
Test Readout: FAR (fluorescence activity ratio)
Reply: number alone, nothing else.

For orientation, consider the following solved cases.
1) COc1ccc(-c2oc3ccccc3c(=O)c2CC(S(=O)(=O)C(F)(F)F)S(=O)(=O)C(F)(F)F)cc1 [Compound 1] | 1.53
2) COc1ccc2cc(-c3[se]c4ccccc4c(=O)c3CC(S(=O)(=O)C(F)(F)F)S(=O)(=O)C(F)(F)F)ccc2c1 [Compound 6, bis(triflyl) selenoflavone] | 4.67
3) COc1ccc2cc(-c3sc4ccccc4c(=O)c3CC(S(=O)(=O)C(F)(F)F)S(=O)(=O)C(F)(F)F)ccc2c1 [Compound 5] | 8.61
4) COc1ccc(-c2sc3ccccc3c(=O)c2CC(S(=O)(=O)C(F)(F)F)S(=O)(=O)C(F)(F)F)cc1 [Compound 2] | 1.89
5) COc1ccc2cc(-c3oc4ccccc4c(=O)c3CC(S(=O)(=O)C(F)(F)F)S(=O)(=O)C(F)(F)F)ccc2c1 [Compound 4] | 4.81

Lab note: next compound to report on.
Task: Entry COc1ccc(-c2[se]c3ccccc3c(=O)c2CC(S(=O)(=O)C(F)(F)F)S(=O)(=O)C(F)(F)F)cc1 [Compound 3] : reported FAR (fluorescence activity ratio) = ?
Result: 1.45

###

Target: P-gp (ABCB1) efflux pump in MDR Colo 320 colon adenocarcinoma cells (Homo sapiens)
Assay: Rhodamine 123 accumulation assay (MDR efflux pump inhibition, flow cytometry)
Details: 20 μM; FAR of compound / FAR of verapamil (20 μM) x 100
Test Readout: FAR Quotient (%)
Write the value in % as a bare number.

For orientation, consider the following solved cases.
1. COc1ccc(-c2sc3ccccc3c(=O)c2CC(S(=O)(=O)C(F)(F)F)S(=O)(=O)C(F)(F)F)cc1 [Compound 2] | 57.83
2. COc1ccc(-c2oc3ccccc3c(=O)c2CC(S(=O)(=O)C(F)(F)F)S(=O)(=O)C(F)(F)F)cc1 [Compound 1] | 46.92
3. COc1ccc2cc(-c3[se]c4ccccc4c(=O)c3CC(S(=O)(=O)C(F)(F)F)S(=O)(=O)C(F)(F)F)ccc2c1 [Compound 6, bis(triflyl) selenoflavone] | 143.33
4. COc1ccc(-c2[se]c3ccccc3c(=O)c2CC(S(=O)(=O)C(F)(F)F)S(=O)(=O)C(F)(F)F)cc1 [Compound 3] | 44.33
5. COc1ccc2cc(-c3sc4ccccc4c(=O)c3CC(S(=O)(=O)C(F)(F)F)S(=O)(=O)C(F)(F)F)ccc2c1 [Compound 5] | 264.17

Lab note: next compound to report on.
Task: Entry COc1ccc2cc(-c3oc4ccccc4c(=O)c3CC(S(=O)(=O)C(F)(F)F)S(=O)(=O)C(F)(F)F)ccc2c1 [Compound 4] : reported FAR Quotient (%) = ?
Result: 147.50
